- TEST: Chemical stability in 0.3M acetate buffer pH 5.0 at 32° C.
- Format: physicochemical
- MEASUREMENT SETUP: buffer pH 5.0, 32° C.

COMPOUND	half-life
O=C(Cc1ccccc1Nc1c(Cl)cccc1Cl)O[C@@H]1CC[C@@]2(O)[C@H]3Cc4ccc(O)c5c4[C@@]2(CCN3CC2CC2)C1O5 (stereo partly shown)	~56.3 days
